molecular target: equine FcRn (large alpha subunit p51) in complex with equine beta-2-microglobulin (equine) (UniProt F6XZ61); assay: SPR (Biacore), pH 6
property.name: Kd (nM)
Note: unit nM is implicit; provide only the numeric part.

Return reported Kd; argument: equine IgG7 K311Q mutant (antibody, part only; not given: Variable domains, not shown: another chain or arm of the molecule) constant: ASTTAPKVFPLASHSAATSGSTVALGCLVSSYFPEPVTVSWNSGALTSGVHTFPSVLQSSGLYSLSSMVTVPASSLKSQTYICNVAHPASSTKVDKKIVIKECGGCPTCPECLSVGPSVFIFPPKPKDVLMISRTPTVTCVVVDVGHDFPDVQFNWYVDGVETHTATTEPKQEQNNSTYRVVSILAIQHQDWLSGKEFKCKVNNQALPAPVQKTISKPTGQPREPQVYVLAPHRDELSKNKVSVTCLVKDFYPTDIDIEWKSNGQPEPETKYSTTPAQLDSDGSYFLYSKLTVETNRWQQGTTFTCAVMHEALHNHYTEKSVSKSPGK
39.5
